Give Ki for every item shown.
tested target: JAK3 (Homo sapiens (Human))
Sequence (P52333 whole entry): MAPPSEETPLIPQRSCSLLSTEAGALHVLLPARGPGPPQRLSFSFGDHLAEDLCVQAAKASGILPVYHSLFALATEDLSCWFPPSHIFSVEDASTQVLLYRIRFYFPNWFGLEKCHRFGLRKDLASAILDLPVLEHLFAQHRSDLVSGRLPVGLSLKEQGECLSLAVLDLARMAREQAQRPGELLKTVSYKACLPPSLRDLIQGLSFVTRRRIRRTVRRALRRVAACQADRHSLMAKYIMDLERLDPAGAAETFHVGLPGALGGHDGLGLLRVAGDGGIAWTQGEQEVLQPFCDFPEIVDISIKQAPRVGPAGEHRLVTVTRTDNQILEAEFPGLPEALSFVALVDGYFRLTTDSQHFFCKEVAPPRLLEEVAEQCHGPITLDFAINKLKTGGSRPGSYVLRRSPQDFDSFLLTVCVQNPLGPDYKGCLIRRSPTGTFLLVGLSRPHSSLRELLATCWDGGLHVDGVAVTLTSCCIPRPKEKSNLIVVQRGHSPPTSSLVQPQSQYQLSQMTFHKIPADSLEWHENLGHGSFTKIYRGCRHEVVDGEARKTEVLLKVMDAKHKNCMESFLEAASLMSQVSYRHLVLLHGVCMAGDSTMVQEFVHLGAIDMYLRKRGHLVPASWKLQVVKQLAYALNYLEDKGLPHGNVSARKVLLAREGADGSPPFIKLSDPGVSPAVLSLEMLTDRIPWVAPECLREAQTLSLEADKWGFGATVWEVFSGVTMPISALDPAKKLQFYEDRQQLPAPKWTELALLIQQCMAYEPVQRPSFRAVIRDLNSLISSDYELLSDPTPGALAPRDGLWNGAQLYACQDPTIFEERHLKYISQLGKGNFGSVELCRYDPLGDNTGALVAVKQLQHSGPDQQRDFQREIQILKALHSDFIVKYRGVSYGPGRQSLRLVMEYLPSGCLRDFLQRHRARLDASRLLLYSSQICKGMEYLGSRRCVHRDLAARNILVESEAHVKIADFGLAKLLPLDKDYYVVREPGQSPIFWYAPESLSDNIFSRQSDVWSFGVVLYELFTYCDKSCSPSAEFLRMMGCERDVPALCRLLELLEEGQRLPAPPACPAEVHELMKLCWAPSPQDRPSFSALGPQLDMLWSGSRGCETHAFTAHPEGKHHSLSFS
protocol text: Biochemical JAK and Tyk2 Kinase Assays (LanthaScreen), JAK3
assay setup: 1.6 μM ATP (Km); pIC50 converted to pKi by Cheng-Prusoff; read-out: JAK 3 (pKi) (converted)

Example cases with answers are listed next.
Exercise: Respond only with Ki recorded for Cc1cc(Nc2cc(O[C@@H]3CCOC3)nc(N(C)[C@@H]3C[C@H]4CCC[C@@H](C3)N4CC(=O)N3CCCC3)n2)n[nH]1
Key: 0.1 to 1 nM

Exercise: Respond only with Ki recorded for Cc1cc(Nc2cc(OC3COC3)nc(N(C)[C@@H]3C[C@H]4CCC[C@@H](C3)N4CC(=O)N3CCCC3)n2)n[nH]1
Key: 0.1 to 1 nM

Exercise: Respond only with Ki recorded for CCNC(=O)CN1[C@@H]2CCC[C@H]1C[C@H](N(C)c1nc(Nc3cc(C)[nH]n3)cc(O[C@@H]3CCOC3)n1)C2
Key: 0.1 to 1 nM

Exercise: Respond only with Ki recorded for CCC(=O)N1[C@@H]2CCC[C@H]1C[C@H](N(C)c1nc(Nc3cc(C)[nH]n3)cc(O[C@H]3CCOC3)n1)C2
Key: 0.1 to 1 nM

Exercise: Respond only with Ki recorded for CCNC(=O)CN1[C@@H]2CCC[C@H]1C[C@H](N(C)c1nc(Nc3cc(C)[nH]n3)cc(O[C@H]3CCOC3)n1)C2
Key: 0.1 to 1 nM

Let us examine a further case.
Exercise: Respond only with Ki recorded for Cc1cc(Nc2cc(O[C@H]3CCOC3)nc(N(C)[C@@H]3C[C@H]4CCC[C@@H](C3)N4C(=O)CC3CC3)n2)n[nH]1
Key: 0.1 to 1 nM

---

protocol text: physchem
assay setup: organic solvent or mixture, thermodynamic from solid, Solubility in Diisopropyl adipate (mg/mL)
Give solubility at 4 h for every item shown.

Example cases with answers are listed next.
Exercise: Respond only with solubility at 4 h recorded for COCCC(=O)N1[C@@H]2CCC[C@H]1C[C@H](N(C)c1nc(Nc3cc(C)[nH]n3)cc(O[C@@H]3CCOC3)n1)C2
Key: > 10000 µg/mL

Exercise: Respond only with solubility at 4 h recorded for Cc1cc(Nc2cc(O[C@H]3CCOC3)nc(N(C)[C@@H]3C[C@H]4CCC[C@@H](C3)N4C(=O)CC3CC3)n2)n[nH]1
Key: < 5000 µg/mL

Exercise: Respond only with solubility at 4 h recorded for CCNC(=O)CN1[C@@H]2CCC[C@H]1C[C@H](N(C)c1nc(Nc3cc(C)[nH]n3)cc(O[C@@H]3CCOC3)n1)C2
Key: > 10000 µg/mL

Exercise: Respond only with solubility at 4 h recorded for CCS(=O)(=O)N1[C@@H]2CCC[C@H]1C[C@H](N(C)c1nc(Nc3cc(C)[nH]n3)cc(C3CCOCC3)n1)C2
Key: > 10000 µg/mL

Exercise: Respond only with solubility at 4 h recorded for Cc1cc(Nc2cc(OC3COC3)nc(N(C)[C@@H]3C[C@H]4CCC[C@@H](C3)N4C(=O)CC3CC3)n2)n[nH]1
Key: 5000 to 10000 µg/mL

Let us examine a further case.
Exercise: Respond only with solubility at 4 h recorded for Cc1cc(Nc2cc(O[C@@H]3CCOC3)nc(N(C)[C@@H]3C[C@H]4CCC[C@@H](C3)N4C(=O)CC3CC3)n2)n[nH]1
Key: < 5000 µg/mL
